- method: Metabolic stability in human hepatic microsome
- Format: in vitro ADME
- condition.notes: human, microsomes, pH 7.4, CL NADPH(+)
Positions of bridges follow the written chain, without caps; N, C: chain ends. Non-standard residues stand in square brackets, D forms with d. Residues, ends and D or L forms follow the SMILES beside them. *: point of attachment. NMeF = CN[C@@H](Cc1ccccc1)C(=O)O; NMeI = CC[C@H](C)[C@H](NC)C(=O)O; NMeL = CN[C@@H](CC(C)C)C(=O)O; NMeV = CN[C@H](C(=O)O)C(C)C; NMeA = CN[C@@H](C)C(=O)O; Piperidide = C1CCN(*)CC1; dNMeA = CN[C@H](C)C(=O)O; Sar = CNCC(=O)O; tBu = CC(C)(C)*
recorded.endpoint: microsomal CLint at 1 uM (µL/min/mg)
# value in µL/min/mg; strip the unit string

Some compounds with known microsomal CLint at 1 uM results, for comparison:
compound	microsomal CLint at 1 uM (µL/min/mg)
CC[C@H](C)[C@H]1C(=O)N[C@H](C(=O)N2CCCCC2)CC(=O)N(C)[C@H](C)C(=O)N(C)[C@@H](C)C(=O)N(C)CC(=O)N(C)[C@@H](CC(C)C)C(=O)N[C@@H]([C@@H](C)O)C(=O)N(C)[C@@H](Cc2ccccc2)C(=O)N(C)[C@@H](CC(C)C)C(=O)N[C@@H](COC(C)(C)C)C(=O)N1C [DP-144] ([dNMeA][NMeA][Sar][NMeL]T[NMeF][NMeL]S(tBu)[NMeI]D-Piperidide; lactam N-10)	125
CC[C@H](C)[C@@H]1NC(=O)[C@H](Cc2ccccc2)N(C)C(=O)[C@H](Cc2ccccc2)NC(=O)[C@H](CC(C)C)N(C)C(=O)[C@H](CC(C)C)NC(=O)[C@H](C)NC(=O)C[C@@H](C(=O)N2CCCCC2)NC(=O)[C@H](CC(C)C)NC(=O)[C@H]([C@@H](C)O)NC(=O)[C@@H]2CCCN2C1=O [DP-17] (AL[NMeL]F[NMeF]IPTLD-Piperidide; lactam N-10)	94

Req: Assign microsomal CLint at 1 uM to the following record: CC(C)C[C@H]1C(=O)N2CCC[C@H]2C(=O)N(C)[C@@H](CC(C)C)C(=O)N[C@@H](C)C(=O)N(C)[C@@H](C(C)C)C(=O)N[C@H](C(=O)N2CCCCC2)CC(=O)N(C)[C@@H](C)C(=O)N[C@@H]([C@@H](C)O)C(=O)N(C)CC(=O)N(C)[C@@H](Cc2ccccc2)C(=O)N(C)[C@@H](Cc2ccccc2)C(=O)N1C [DP-67] ([NMeA]T[Sar][NMeF][NMeF][NMeL]P[NMeL]A[NMeV]D-Piperidide; lactam N-11)
Resp: 15

====

- method: Metabolic stability in human hepatic microsome
- Format: in vitro ADME
- condition.notes: human, microsomes, pH 7.4, CL NADPH(+)
Positions of bridges follow the written chain, without caps; N, C: chain ends. Non-standard residues stand in square brackets, D forms with d. Residues, ends and D or L forms follow the SMILES beside them. *: point of attachment. NMeF = CN[C@@H](Cc1ccccc1)C(=O)O; NMeI = CC[C@H](C)[C@H](NC)C(=O)O; NMeL = CN[C@@H](CC(C)C)C(=O)O; NMeV = CN[C@H](C(=O)O)C(C)C; NMeA = CN[C@@H](C)C(=O)O; Piperidide = C1CCN(*)CC1; dNMeA = CN[C@H](C)C(=O)O; Sar = CNCC(=O)O
recorded.endpoint: microsomal CLint at 1 uM (µL/min/mg)
# output: bare number, implied unit µL/min/mg

Reference set (2 entries):
compound	data.value
CC[C@H](C)[C@H]1C(=O)N[C@@H](C)C(=O)N(C)[C@@H](Cc2ccccc2)C(=O)N[C@@H]([C@@H](C)O)C(=O)N(C)[C@@H](CC(C)C)C(=O)N[C@@H](Cc2ccccc2)C(=O)N(C)[C@@H](C(C)C)C(=O)N[C@H](C(=O)N2CCCCC2)CC(=O)N[C@@H](C)C(=O)NCC(=O)N(C)[C@@H](CC(C)C)C(=O)N1C [DP-31] (AG[NMeL][NMeI]A[NMeF]T[NMeL]F[NMeV]D-Piperidide; lactam N-11)	57
CC[C@H](C)[C@H]1C(=O)N[C@@H]([C@@H](C)O)C(=O)N(C)CC(=O)N(C)[C@@H](CC(C)C)C(=O)N[C@H](C(=O)N2CCCCC2)CC(=O)N(C)[C@H](C)C(=O)N[C@@H](CC(C)C)C(=O)N(C)[C@@H](CC(C)C)C(=O)N(C)[C@@H](Cc2ccccc2)C(=O)N[C@@H](C)C(=O)N(C)[C@@H](Cc2ccccc2)C(=O)N1C [DP-105] ([dNMeA]L[NMeL][NMeF]A[NMeF][NMeI]T[Sar][NMeL]D-Piperidide; lactam N-11)	60

Turning now to a further record.
Req: Consider the compound CC(C)C[C@@H]1NC(=O)[C@H](C)N(C)C(=O)[C@H](C(C)C)N(C)C(=O)[C@H](Cc2ccccc2)NC(=O)CN(C)C(=O)[C@H]([C@@H](C)O)NC(=O)[C@@H]2CCCN2C(=O)[C@H](CC(C)C)NC(=O)[C@H](C)NC(=O)C[C@@H](C(=O)N2CCCCC2)NC(=O)[C@H](CC(C)C)N(C)C1=O [DP-32] (ALPT[Sar]F[NMeV][NMeA]L[NMeL]D-Piperidide; lactam N-11) and give its recorded microsomal CLint at 1 uM.
Resp: 26
